- System: Fibroblast
- ASSAY METHOD TEXT: Incucyte cell viability with human fibroblast; also: unitless GR value; below 1 slowed growth and below 0 cell loss
- Format: toxicity, cell-based
- CONDITION LABEL: 24 h, 10 µM, compound concentration 10 uM, replicate number 1
# key: entry, value: Growth Rate

>  <COMPOUND>
COc1ccccc1[C@@H]1CNCCC12CCN(C(=O)[C@](OC)(c1ccccc1)C(F)(F)F)CC2

>  <Growth Rate>
0.63

$$$$
>  <COMPOUND>
CCCCNc1ncc2c(-c3ccc(CN4CCN(C)CC4)cc3)cn([C@H]3CC[C@H](O)CC3)c2n1

>  <Growth Rate>
-0.18

$$$$
>  <COMPOUND>
O=C(O)CCC/C=C\C[C@@H]1[C@@H](/C=C/[C@@H](O)COc2cccc(C(F)(F)F)c2)[C@H](O)C[C@@H]1O

>  <Growth Rate>
0.8

$$$$
>  <COMPOUND>
CNCc1ccc(-c2cc(-c3nc(-c4ccc(S(=O)(=O)C(C)C)cc4)cnc3N)on2)cc1

>  <Growth Rate>
-0.05

$$$$
>  <COMPOUND>
O=C(CCSCc1ccco1)NNC(=O)N1Cc2ccccc2Oc2ccc(Cl)cc21

>  <Growth Rate>
0.8

$$$$
>  <COMPOUND>
COCCNc1nc2ccc(C#CC3(O)CCCCC3)cc2n1-c1ccnc(N)n1

>  <Growth Rate>
0.3

$$$$
>  <COMPOUND>
COCCc1ccc(-c2c(C)nc3c(N4CCOCC4)ccnn23)cn1

>  <Growth Rate>
0.86

$$$$
>  <COMPOUND>
Clc1ccccc1C(c1ccccc1)(c1ccccc1)n1ccnc1

>  <Growth Rate>
0.82

$$$$
>  <COMPOUND>
Cl.Cl.O=[N+]([O-])c1ccc(CN2CCOCCOCCN(Cc3ccc([N+](=O)[O-])cc3)CCOCC2)cc1

>  <Growth Rate>
-0.06

$$$$
>  <COMPOUND>
COC(=O)C1=C(C)NC(C)=C(C(=O)OC(C)C)C1c1cccc2nonc12 (stereo unspecified)

>  <Growth Rate>
0.29

$$$$
>  <COMPOUND>
NCC1CCC(CNc2nc(NCc3ccccc3OC(F)(F)F)ncc2[N+](=O)[O-])CC1 (stereo unspecified)

>  <Growth Rate>
0.04

$$$$
>  <COMPOUND>
CC(C)(C)C(=O)NCc1ccc(Cl)c(C(=O)Nc2ncc[nH]2)c1

>  <Growth Rate>
0.89

$$$$
>  <COMPOUND>
C[C@@H]1C[C@H](N)C[C@H](c2ccncc2NC(=O)c2ccc(F)c(-c3c(F)cccc3F)n2)C1

>  <Growth Rate>
0.67

$$$$
>  <COMPOUND>
CN[C@@H](C)C(=O)N[C@H](C(=O)N1CCC[C@H]1C(=O)N[C@@H]1CCCc2ccccc21)C1CCCCC1.Cl

>  <Growth Rate>
0.72

$$$$
>  <COMPOUND>
C[C@@H]1CC[C@@]2(OC1)O[C@H]1[C@@H](O)[C@H]3[C@@H]4CC[C@H]5C[C@@H](O[C@@H]6O[C@H](CO)[C@H](O[C@@H]7O[C@H](CO)C(O)[C@H](O[C@@H]8OC[C@@H](O)[C@H](O)[C@H]8O)[C@H]7O[C@@H]7O[C@H](CO)[C@H](O)[C@H](O[C@@H]8O[C@H](CO)[C@@H](O)[C@H](O)[C@H]8O)[C@H]7O)[C@H](O)[C@H]6O)[C@H](O)C[C@]5(C)[C@H]4CC[C@]3(C)[C@H]1[C@@H]2C (stereo partly specified)

>  <Growth Rate>
0.88

$$$$
>  <COMPOUND>
O=C(O)CCCCCC[C@@H]1C(=O)NC(=O)N1CCC(O)C1CCCCC1 (stereo partly specified)

>  <Growth Rate>
0.75

$$$$
>  <COMPOUND>
CO[C@H](C)CN1CC[C@@]2(C)c3ccc(O)cc3C[C@@H]1C2(C)C.Cl

>  <Growth Rate>
0.96

$$$$
>  <COMPOUND>
Cn1c(Nc2c(Cl)cccc2Cl)nc2ccc3nc[nH]c(=O)c3c21

>  <Growth Rate>
0.51

$$$$
>  <COMPOUND>
CCC(=O)N[C@H]1CC[C@@H](C(=O)N(C)c2ccc(-c3nc4ccccc4o3)cc2)C1

>  <Growth Rate>
0.79

$$$$
>  <COMPOUND>
Cc1ccc(-c2cn3nc(C(=O)NC4(c5ccc(F)cc5)CN(C)C4)c(C(C)C)c3c(=O)[nH]2)cc1C

>  <Growth Rate>
0.16

$$$$
>  <COMPOUND>
N#CN1CC[C@@H](C(=O)Nc2nc3c(s2)CN(C(=O)CN=[N+]=[N-])CC3)C1

>  <Growth Rate>
1

$$$$
>  <COMPOUND>
O=C(N[C@H]1CCCCC/C=C\C2C[C@@]2(C(=O)O)NC(=O)[C@@H]2C[C@@H](Oc3ccncc3)CN2C1=O)OC1CCCC1 (stereo partly specified)

>  <Growth Rate>
0.99

$$$$
>  <COMPOUND>
CC(=O)O[C@H]1C(=O)[C@@]2(C)[C@H]([C@H](OC(=O)c3ccccc3)[C@]3(O)C[C@H](OC(=O)[C@H](O)[C@@H](NC(=O)c4ccccc4)c4ccccc4)C(C)=C1C3(C)C)[C@]1(OC(C)=O)CO[C@@H]1C[C@@H]2O

>  <Growth Rate>
-0.39

$$$$
>  <COMPOUND>
Nc1ncc2c(n1)-c1c([nH]c3ccc(C4=CCOCC4)cc13)CCC2

>  <Growth Rate>
0.68

$$$$
>  <COMPOUND>
CCOC(=O)c1cncn1[C@H](C)c1ccccc1 [ETOMIDATE]

>  <Growth Rate>
-0.16

$$$$
>  <COMPOUND>
C[C@@H](CO)CCC[C@@H](C)[C@H]1CC[C@H]2[C@@H]3CC=C4C[C@@H](O)CC[C@]4(C)[C@H]3CC[C@]12C

>  <Growth Rate>
0.6

$$$$
>  <COMPOUND>
N[C@@H]1CCCC[C@H]1Oc1ccc2ncc(-c3cc4ccccc4o3)n2n1

>  <Growth Rate>
-0.62

$$$$
>  <COMPOUND>
C=C[C@@]12CCc3cc(O)ccc3[C@H]1CC[C@@]1(C)[C@H]2CC[C@@H]1O

>  <Growth Rate>
0.83

$$$$
>  <COMPOUND>
COc1ccc(CSc2nnc(-c3ccc4ncsc4c3)o2)cc1C(F)(F)F

>  <Growth Rate>
0.64

$$$$
>  <COMPOUND>
CCN1/C(=C/C(C)=O)Sc2ccc(OC(C)=O)cc21

>  <Growth Rate>
0.91

$$$$
>  <COMPOUND>
Cc1ccc2c(NS(=O)(=O)c3ccccc3Cl)cccc2c1Oc1ncccc1-c1ccnc(N[C@H]2CCCNC2)n1.Cl

>  <Growth Rate>
0.3

$$$$
